# ASSAYED_TARGET: PLK1 (Homo sapiens, UniProt P53350)
# Construct: endogenous in cells; host or cells: HeLa LgBit (Plk1-HiBit KI): HeLa cells stably expressing LgBit, with HiBit knocked into the endogenous Plk1 locus by CRISPR/Cas9
# Sequence (P53350 whole entry): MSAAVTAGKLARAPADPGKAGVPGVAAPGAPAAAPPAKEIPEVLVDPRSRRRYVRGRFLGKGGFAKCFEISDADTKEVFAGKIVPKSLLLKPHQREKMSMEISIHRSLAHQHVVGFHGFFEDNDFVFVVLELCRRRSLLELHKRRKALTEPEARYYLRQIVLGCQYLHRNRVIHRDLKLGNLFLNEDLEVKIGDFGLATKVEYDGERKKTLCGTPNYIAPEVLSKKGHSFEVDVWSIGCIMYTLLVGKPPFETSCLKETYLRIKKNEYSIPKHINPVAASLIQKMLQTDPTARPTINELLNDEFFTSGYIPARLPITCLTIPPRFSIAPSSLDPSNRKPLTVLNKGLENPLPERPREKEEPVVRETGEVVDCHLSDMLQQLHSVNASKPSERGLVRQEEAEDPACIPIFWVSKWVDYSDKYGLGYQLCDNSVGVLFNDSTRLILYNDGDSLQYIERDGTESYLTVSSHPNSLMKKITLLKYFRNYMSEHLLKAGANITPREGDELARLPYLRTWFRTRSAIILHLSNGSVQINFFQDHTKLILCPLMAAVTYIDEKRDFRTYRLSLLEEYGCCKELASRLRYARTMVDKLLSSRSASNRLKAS
# EXPERIMENT_NOTES: Luciferase assay for PLK1 in HeLa LgBit (Plk1-HiBit KI) cell line
# Type: cell-based
# DETAILS: 300 nM compound, luminescence after 9 hours, read-out: Activity: ratio of the luminescense value of compound treatment group to DMSO treatment group
Readings of remaining activity at 0.3 µM for the listed molecules

Known remaining activity at 0.3 µM results, listed for orientation:
| MOLECULE | ASSAYED_TARGET | remaining activity at 0.3 µM |
| --- | --- | --- |
| COc1cc(C(=O)NC2CCN(C(=O)CCN3CCN(c4cccc(C5CCC(=O)NC5=O)n4)CC3)CC2)ccc1Nc1ncc2c(n1)N(C1CCCC1)CC(F)(F)C(=O)N2C (centres unmarked) | PLK1 (Homo sapiens, UniProt P53350) | < 60% |
| COc1cc(C(=O)NN2CC3(CCN(CC4CCN(c5ccc(C6CCC(=O)NC6=O)cc5F)CC4)CC3)C2)ccc1Nc1ncc2c(n1)N(C1CCCC1)CC(F)(F)C(=O)N2C (centres unmarked) | PLK1 (Homo sapiens, UniProt P53350) | < 60% |
| COc1cc(C(=O)NCC2CCN(CC3CCN(c4ccc(C5CCC(=O)NC5=O)cc4F)CC3)CC2)ccc1Nc1ncc2c(n1)N(C1CCCC1)CC(F)(F)C(=O)N2C (centres unmarked) | PLK1 (Homo sapiens, UniProt P53350) | < 30% |
| COc1cc(C(=O)NC2CCN(C(=O)CCCOc3cccc(C4CCC(=O)NC4=O)c3)CC2)ccc1Nc1ncc2c(n1)N(C1CCCC1)CC(F)(F)C(=O)N2C (centres unmarked) | PLK1 (Homo sapiens, UniProt P53350) | < 30% |
| COc1cc(C(=O)NC2CCCN(C(=O)CCN3CCN(c4ccc(C5CCC(=O)NC5=O)cc4F)CC3)C2)ccc1Nc1ncc2c(n1)N(C1CCCC1)CC(F)(F)C(=O)N2C (centres unmarked) | PLK1 (Homo sapiens, UniProt P53350) | < 60% |

Which remaining activity at 0.3 µM value belongs to COc1cc(C(=O)NC2CC23CCN(CC2CCN(c4ccc(C5CCC(=O)NC5=O)cc4F)CC2)CC3)ccc1Nc1ncc2c(n1)N(C1CCCC1)CC(F)(F)C(=O)N2C (centres unmarked) ?
< 30%

Which remaining activity at 0.3 µM value belongs to COc1cc(C(=O)NN2CCC([C@@H](C)CN3CCN(c4ccc(C5CCC(=O)NC5=O)cc4F)CC3)CC2)ccc1Nc1ncc2c(n1)N(C1CCCC1)CC(F)(F)C(=O)N2C (some centres unmarked) ?
< 30%

Which remaining activity at 0.3 µM value belongs to COc1cc(C(=O)NC2CCN(C(=O)CCN3CCN(c4cccc(C5CCC(=O)NC5=O)c4)CC3)CC2)ccc1Nc1ncc2c(n1)N(C1CCCC1)CC(F)(F)C(=O)N2C (centres unmarked) ?
< 60%

Which remaining activity at 0.3 µM value belongs to COc1cc(C(=O)NC2CC3(CCN(CC4CCN(c5ccc(C6CCC(=O)NC6=O)cc5F)CC4)CC3)C2)ccc1Nc1ncc2c(n1)N(C1CCCC1)CC(F)(F)C(=O)N2C (centres unmarked) ?
< 30%

Which remaining activity at 0.3 µM value belongs to COc1cc(C(=O)NC2CC3(CCN(CC4(C)CCN(c5ccc(C6CCC(=O)NC6=O)cc5F)CC4)CC3)C2)ccc1Nc1ncc2c(n1)N(C1CCCC1)CC(F)(F)C(=O)N2C (centres unmarked) ?
< 60%

Which remaining activity at 0.3 µM value belongs to COc1cc(C(=O)NC2CC3(CCN(C[C@@H]4CCN(c5ccc(C6CCC(=O)NC6=O)cc5F)C[C@@H]4F)CC3)C2)ccc1Nc1ncc2c(n1)N(C1CCCC1)CC(F)(F)C(=O)N2C (some centres unmarked) ?
< 30%
